Reference source for all entries: patent US20030148956A1

Molecular target: T1, CRF2R
T1 sequence (Q13324 whole entry, species assumed, looked up): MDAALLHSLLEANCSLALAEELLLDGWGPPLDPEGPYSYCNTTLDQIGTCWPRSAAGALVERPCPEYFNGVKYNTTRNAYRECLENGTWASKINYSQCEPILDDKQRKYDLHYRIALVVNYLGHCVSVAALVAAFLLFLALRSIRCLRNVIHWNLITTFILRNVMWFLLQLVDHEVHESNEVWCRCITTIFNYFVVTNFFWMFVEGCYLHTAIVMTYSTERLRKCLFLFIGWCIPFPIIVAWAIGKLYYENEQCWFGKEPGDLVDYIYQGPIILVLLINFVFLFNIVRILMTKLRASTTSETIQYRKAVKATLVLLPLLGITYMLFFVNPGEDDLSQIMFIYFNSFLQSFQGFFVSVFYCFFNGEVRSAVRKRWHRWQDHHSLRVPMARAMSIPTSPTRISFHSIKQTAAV
Assay: cell-based or functional assay
Ends that are not written are not given here.
Categories are assigned from the measured CRF2R Emax using these intervals: bin 1: < 60%; bin 2: ≥ 60% and < 90%; bin 3: ≥ 90%

[Q] Into which bin does this binder go? IVLSLDVPIGLLQEVLEMARAEQLAQQAHSNRKLMEII-NH2 [SEQ ID NO 165]
[A] bin 2

[Q] Into which bin does this binder go? ZGPPISIDLPDYLLRKMIEIEKQEKEKQQAANNRLLLDTI (C-terminal amide) [SEQ ID NO 54]
[A] bin 1

[Q] Into which bin does this binder go? IVLSLDVPIGLLQILLEQARAAAREQATTNARILARV-NH2 [SEQ ID NO 141]
[A] bin 1

[Q] Into which bin does this binder go? ZGPPISIDLPINLLRKMIEIEKQEKEKQQAANNRLLLDTI (C-terminal amide) [SEQ ID NO 37]
[A] bin 1

[Q] Into which bin does this binder go? ZGPPISIDLPFQLLRKMIEIEKQEKEKQQATTNARLLDRV (C-terminal amide) [SEQ ID NO 22]
[A] bin 3

[Q] Into which bin does this binder go? ZGPPISIDLPQVLLRKMIEIEKQEKEKQQAANNRLLLDTI (C-terminal amide) [SEQ ID NO 197]
[A] bin 3

[Q] Into which bin does this binder go? ZGPPISIDLPFYLLRKMIEIEKQEKEKQQAANNRLLLDTI (C-terminal amide) [SEQ ID NO 85]
[A] bin 3

[Q] Into which bin does this binder go? ZGPPISIDLPGYLLRKMIEIEKQEKEKQQAANNRLLLDTI (C-terminal amide) [SEQ ID NO 63]
[A] bin 3

[Q] Into which bin does this binder go? ZGPPISIDLSLELLRKMIEIEKQEKEKQQAANNALLLATI (C-terminal amide) [SEQ ID NO 30]
[A] bin 2

[Q] Into which bin does this binder go? ZGPPISIDLPTQLLRKMIEIEKQEKEKQQAANNRLLLDTI (C-terminal amide) [SEQ ID NO 72]
[A] bin 1
